The reported measurements were obtained from patent US20210230254A1.

# maps each entry to its koff
# measurement_target: T1, YU-2 gp140 (HIV-1 YU2, UniProt P35961 32-670)
# T1 construct: domain: gp140; also called YU2 gp140 trimer
# protocol_description: SPR, gp140 on chip, IgG injected
Give just the number in s⁻¹; leave the unit off.

| binder | koff (s⁻¹) |
| --- | --- |
| 8ANC195 (antibody, V domains shown, also called 8ANC195HC; 8ANC195KC) VH: QIHLVQSGTEVKKPGSSVTVSCKAYGVNTFGLYAVNWVRQAPGQSLEYIGQIWRWKSSASHHFRGRVLISAVDLTGSSPPISSLEIKNLTSDDTAVYFCTTTSTYDKWSGLHHDGVMAFSSWGQGTLISVSA VL: DIQMTQSPSTLAASIGGTVRVSCRASQSITGNWVAWYQQRPGKAPRLLIYRGAALLGGVPSRFSGSAAGTDFTLTIGNLQAEDFGTFYCQQYDTYPGTFGQGTKVEVKR | 0.00167 |

Please look up its koff: 3BNC156 (antibody, V domains shown, also called 3BNC156HC; 3bnc156kc) VH: QVQLVQSGAALKKPGASLRISCQTYGYKFTDHLIYWWRQAPGQGLEWIGWIKPETGQPSYSYRFQGRVSLTRDTFEEIVFMDLRGLRSDDTAIYFCARRHSDYCDFDVWGGGSQVIVSS VL: DIQMTQSPSSLSASVGDTVTITCQTNKGYLNWYQQKRGRAPKLLMYDGSKLVTGVPSRLSGRRWGTQYNLTIGSLQPEDIATYYCQVYEFFGPGTRLDLKR
0.00198
